The origin of these recorded values is paper PMC4774911.

system.tested: Plasmodium falciparum calcium-dependent protein kinase 1 (CDPK1) (Plasmodium falciparum)
Construct: 6-Histidine (N); made in house
Sequence (P62344 whole entry): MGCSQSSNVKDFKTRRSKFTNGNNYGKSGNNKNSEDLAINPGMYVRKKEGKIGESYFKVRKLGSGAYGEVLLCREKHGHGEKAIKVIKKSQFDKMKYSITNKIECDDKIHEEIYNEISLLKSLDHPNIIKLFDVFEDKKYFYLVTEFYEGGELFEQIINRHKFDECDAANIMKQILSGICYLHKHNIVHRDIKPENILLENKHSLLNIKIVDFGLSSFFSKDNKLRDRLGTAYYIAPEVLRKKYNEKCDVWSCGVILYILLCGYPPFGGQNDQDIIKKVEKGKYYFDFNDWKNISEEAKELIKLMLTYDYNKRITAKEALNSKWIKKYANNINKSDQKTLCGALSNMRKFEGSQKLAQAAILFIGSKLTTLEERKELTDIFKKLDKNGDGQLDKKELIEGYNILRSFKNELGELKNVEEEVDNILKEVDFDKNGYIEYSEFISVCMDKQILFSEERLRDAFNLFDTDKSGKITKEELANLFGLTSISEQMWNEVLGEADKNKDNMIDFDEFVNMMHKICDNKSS
protocol.description: CDPK1 Kinase-Glo ATP-consumption screen and dose-response
Type: biochemical
assay.conditions: hits below 1 uM; read-out: CDPK1 IC50
# IC50 per entry
Provide the reading as a plain figure in nM.

Consider the reported IC50 for these molecules:
# chemical.structure, IC50 [nM]
data = [
    ("CC(C)(CNC(=O)[C@H]1CCCCN1)c1nc(-c2ccc(Cl)c(O)c2)c(-c2ccncc2)[nH]1.Cl", 164),
    ("CCn1c(-c2nonc2N)nc2c(-c3cccc(NC(=O)NC45CC6CC(CC(C6)C4)C5)c3)ncc(OCCCN)c21.O=C(O)C(F)(F)F", 84),
    ("CC(C)(CNCc1ccc(OC(F)(F)F)cc1)c1nc(-c2ccc(Cl)c(O)c2)c(-c2ccncc2)[nH]1.Cl", 438),
    ("NS(=O)(=O)c1ccc(Nc2nccc(-c3c(-c4cccc(NC(=O)c5c(F)cccc5F)c4)nn4ccccc34)n2)cc1", 48),
    ("CNC(=O)c1ccccc1Nc1nc(Nc2ccc(C(=O)O)cc2)ncc1Cl.Cl", 246),
    ("Cl.Oc1cc(-c2nc(C3(CNCc4ccc(Cl)cc4)CCCCC3)[nH]c2-c2ccncc2)ccc1Cl", 846),
    ("CN1CCN(Cc2ccc(-c3ccc4c(Nc5cc(O)c(Cl)cc5F)ccnc4c3)o2)CC1", 131),
    ("CC(C)(CN)c1nc(-c2ccc(Br)c(O)c2)c(-c2ccncc2)[nH]1.Cl", 19),
]

Lookup result for O=C(Nc1cccc(-c2nn3ccccc3c2-c2ccnc(Nc3ccc(C(=O)N4CCOCC4)cc3)n2)c1)c1c(F)cccc1F ; measured IC50: 92

Lookup result for O=C(NCCCN1CCCCC1)c1ccc(Nc2nccc(Nc3ccc(Oc4ccccc4)cc3)n2)cc1 ; measured IC50: 94

Lookup result for CCn1c(-c2nonc2N)nc2c(-c3cccc(NC(=O)Nc4cccc(C(F)(F)F)c4)c3)ncc(OCCCN)c21.O=C(O)C(F)(F)F ; measured IC50: 15

Lookup result for N#Cc1ccc(-c2cnc3ccc(NCCc4cccnc4)nn23)cc1 ; measured IC50: 246

Lookup result for CN(C)CCN(C)Cc1nc(-c2ccc3c(Nc4ccc(Oc5ccccc5)cc4)ccnc3c2)cs1 ; measured IC50: 915
